Where these numbers come from: patent US20210388107A1

Please go through the items and note down their EC50.
Test Target: T1, human SIRPαBIT expressed on cells (human, UniProt P78324 31-504)
T1 construct: endogenous on U937 cells or transiently expressed on ExpiCHO-S cells; in the SHP-1 assay a ProLink-tagged form on Jurkat cells; also called huSIRPαBIT; U937 cells (huSIRPαBIT)
T1 sequence (P78324 31-504 limits assumed): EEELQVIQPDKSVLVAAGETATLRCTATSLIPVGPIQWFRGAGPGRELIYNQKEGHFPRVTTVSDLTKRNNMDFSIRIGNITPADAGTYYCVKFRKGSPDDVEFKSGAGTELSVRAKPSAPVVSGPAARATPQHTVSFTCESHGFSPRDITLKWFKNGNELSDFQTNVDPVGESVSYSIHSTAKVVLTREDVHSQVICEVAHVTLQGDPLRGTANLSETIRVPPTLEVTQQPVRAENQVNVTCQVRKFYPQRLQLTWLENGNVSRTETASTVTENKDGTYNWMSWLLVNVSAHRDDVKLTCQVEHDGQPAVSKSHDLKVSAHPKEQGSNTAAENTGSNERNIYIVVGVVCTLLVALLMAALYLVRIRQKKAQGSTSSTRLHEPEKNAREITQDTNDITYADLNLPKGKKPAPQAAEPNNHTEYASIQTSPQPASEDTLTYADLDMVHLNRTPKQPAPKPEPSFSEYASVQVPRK
Assay Info: flow cytometry, ExpiCHO-S cells
Numbers only, in µg/mL.

>>> reported_value("AB25-LALA (AB25 humanized IgG1-kappa, LALA) (antibody, V domains shown) VH: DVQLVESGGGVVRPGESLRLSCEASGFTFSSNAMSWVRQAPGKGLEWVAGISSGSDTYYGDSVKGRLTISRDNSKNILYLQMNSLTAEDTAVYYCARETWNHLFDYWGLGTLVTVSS VL: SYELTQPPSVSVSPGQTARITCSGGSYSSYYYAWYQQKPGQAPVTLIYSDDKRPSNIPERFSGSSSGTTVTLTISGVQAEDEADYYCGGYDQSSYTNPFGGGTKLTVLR")
0.1
>>> reported_value("1H9 humanized IgG1-kappa, HC-N297A (antibody, V domains shown) VH: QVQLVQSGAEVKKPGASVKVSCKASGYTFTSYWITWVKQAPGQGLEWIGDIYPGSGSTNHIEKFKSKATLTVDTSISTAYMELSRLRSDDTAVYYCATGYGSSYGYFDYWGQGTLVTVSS VL: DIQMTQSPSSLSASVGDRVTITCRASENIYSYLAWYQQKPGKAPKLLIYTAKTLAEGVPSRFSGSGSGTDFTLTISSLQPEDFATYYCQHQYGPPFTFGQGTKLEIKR")
0.08

Let's switch to this binder now.
**Q:** Looking for the measured EC50 of AB119-LALA (AB119 human IgG1-kappa, LALA) (antibody, V domains shown) VH: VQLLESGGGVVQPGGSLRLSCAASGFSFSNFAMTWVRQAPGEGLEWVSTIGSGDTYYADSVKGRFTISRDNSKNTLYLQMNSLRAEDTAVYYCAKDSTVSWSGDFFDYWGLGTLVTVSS VL: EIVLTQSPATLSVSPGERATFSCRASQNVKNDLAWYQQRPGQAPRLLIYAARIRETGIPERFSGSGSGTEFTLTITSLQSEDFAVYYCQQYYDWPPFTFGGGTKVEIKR , can you help?
**A:** 0.07
